EXPERIMENT DESCRIPTION: Pharmacokinetic study after intravenous administration in control and hyperuricemic rats (plasma, urine, kidney)
TEST PARAMETERS: rat, plasma and urine, iv, 30 mg/kg, CLR, control rats; iv metformin 30 mg/kg; individual rat
OBSERVED PROPERTY: CL renal (mL/min/kg)
Please give a number only; it is taken to be in mL/min/kg.

// recorded CL renal for CN(C)C(=N)N=C(N)N [Metformin, metformin] : 21.7

---

EXPERIMENT DESCRIPTION: Pharmacokinetic study after intravenous administration in control and hyperuricemic rats (plasma, urine, kidney)
TEST PARAMETERS: rat, plasma, intravenous, Plasma concentration, hyperuricemic rats, 60 min after iv metformin 30 mg/kg or cephalexin 10 mg/kg (creatinine endogenous), mean n=3
OBSERVED PROPERTY: concentration at 60 min
Answer format reminder: number followed by unit.

// recorded concentration at 60 min for CN1CC(=O)NC1=N [Creatinine, creatinine] : 32.4 µM

// recorded concentration at 60 min for CN(C)C(=N)N=C(N)N [Metformin, metformin] : 24.9 µM

---

EXPERIMENT DESCRIPTION: Pharmacokinetic study after intravenous administration in control and hyperuricemic rats (plasma, urine, kidney)
TEST PARAMETERS: rat, urine, intravenous, 30 mg/kg, Urinary recovery (cumulative), hyperuricemic rats, 30 min after iv metformin 30 mg/kg, mean n=3
OBSERVED PROPERTY: dose excreted at 30 min (%)
Please give a number only; it is taken to be in %.

// recorded dose excreted at 30 min for CN(C)C(=N)N=C(N)N : 31.6

---

EXPERIMENT DESCRIPTION: Pharmacokinetic study after intravenous administration in control and hyperuricemic rats (plasma, urine, kidney)
TEST PARAMETERS: rat, urine, intravenous, 30 mg/kg, Urinary recovery (cumulative), hyperuricemic rats, 60 min after iv metformin 30 mg/kg, mean n=3
OBSERVED PROPERTY: dose excreted at 60 min (%)
Please give a number only; it is taken to be in %.

// recorded dose excreted at 60 min for CN(C)C(=N)N=C(N)N : 41.4

---

Exercise: for every item that follows, state its recorded concentration at 30 min.
EXPERIMENT DESCRIPTION: Pharmacokinetic study after intravenous administration in control and hyperuricemic rats (plasma, urine, kidney)
TEST PARAMETERS: rat, plasma, intravenous, Plasma concentration, control rats, 30 min after iv metformin 30 mg/kg or cephalexin 10 mg/kg (creatinine endogenous), mean n=3
Answer format reminder: number followed by unit.

// recorded concentration at 30 min for CN(C)C(=N)N=C(N)N : 34.9 µM

// recorded concentration at 30 min for CN1CC(=O)NC1=N : 20 µM

---

EXPERIMENT DESCRIPTION: in vivo
TEST PARAMETERS: rat, plasma, intravenous
OBSERVED PROPERTY: concentration at 120 min (µM)
Please give a number only; it is taken to be in µM.

// recorded concentration at 120 min for CN(C)C(=N)N=C(N)N [Metformin, metformin] : 3.94

---

EXPERIMENT DESCRIPTION: Pharmacokinetic study after intravenous administration in control and hyperuricemic rats (plasma, urine, kidney);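 also: Pentobarbital-anesthetized rats with cannulated bladder, jugular plasma, timed urine and saline kidney homogenate assayed by HPLC or LC-MS/MS, Kp as kidney over plasma level at 4 h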
TEST PARAMETERS: rat, urine, intravenous, 30 mg/kg, Urinary recovery (cumulative), hyperuricemic rats, 240 min after iv metformin 30 mg/kg, individual rat
OBSERVED PROPERTY: dose excreted at 240 min
Answer format reminder: number followed by unit.

// recorded dose excreted at 240 min for CN(C)C(=N)N=C(N)N [Metformin, metformin] : 67.5%
